All values here come from paper PMC4589464.

# ASSAY DETAILS: Cytotoxicity in MT-4 cells
# Assay type: cell-based
# SETTINGS: human, MT-4 cells
Counter-ions that a name gives are not always drawn.
PARAMETER: CC50 (µM)
Your answer should be a plain number; it is taken to be in µM.

The reported value for CC(C)OC(=O)OCOP(=O)(CO[C@H](C)Cn1cnc2c(N)ncnc21)OCOC(=O)OC(C)C [TDF, tenofovir disoproxil fumarate] in terms of CC50 is 40.4

----------
# Test system: HBVADV-R^A181T/N236T
# ASSAY DETAILS: Southern blot assay, Huh-7 cells transfected with ADV-resistant HBV plasmid
# Assay type: cell-based
# SETTINGS: Hepatitis B virus, Huh-7, read-out: IC50 against HBVADV-R^A181T/N236T
Below, each entry is listed with its recorded pIC50.
# pIC50: negative log10 of molar concentration; output just the value

Recorded results for 3 compounds are shown here.
• N#C[C@]1(CO)O[C@@H](n2cnc3c(N)nc(N)nc32)C[C@@H]1O = 7.05
• N#C[C@]1(CO)O[C@@H](n2cnc3c(=O)[nH]c(N)nc32)C[C@@H]1O = 7.40
• C=C1[C@H](CO)[C@@H](O)C[C@@H]1n1cnc2c(=O)[nH]c(N)nc21 = 6.74

Shifting focus to the compound that follows.
pIC50 reported for this compound `CC(C)(C)C(=O)OCOP(=O)(COCCn1cnc2c(N)ncnc21)OCOC(=O)C(C)(C)C` : 4.40

----------
# System: HIV-1NL4-3
# ASSAY DETAILS: microbe, parasite or virus in culture
# SETTINGS: Human immunodeficiency virus 1, MT4, read-out: IC50 against Anti-HIV-1
PARAMETER: pIC50
For clarity, pIC50 is expressed as the negative log10 of concentration in mol/L.

Lab note: Nc1nc(=O)n([C@@H]2CS[C@H](CO)O2)cc1F [FTC, emtricitabine] gave pIC50 of 6.64

----------
# ASSAY DETAILS: in vitro
# Assay type: cell-based
# SETTINGS: human
PARAMETER: CC50

* Nc1ccn([C@H]2CC[C@@H](CO)O2)c(=O)n1 | > 100 µM
* N#C[C@]1(CO)O[C@@H](n2cnc3c(=O)[nH]c(N)nc32)C[C@@H]1O | 3.2 µM
* Nc1ccn([C@@H]2CS[C@H](CO)O2)c(=O)n1 | > 100 µM

Moving on to the next compound.
Notebook: Cc1cn([C@H]2C=C[C@@H](CO)O2)c(=O)[nH]c1=O [d4T, 2′,3′-didehydro-3′-deoxythymidine] , CC50 read as > 100 µM

----------
Form field: S.I. with Anti-HIV-1 (CC50/IC50) (one value per entry).
# Tested on: HIV-1NL4-3
# SETTINGS: MT-4 cells
Counter-ions that a name gives are not always drawn.

Recorded results for 3 molecules are shown here.
* Cc1cn([C@H]2C[C@H](N=[N+]=[N-])[C@@H](CO)O2)c(=O)[nH]c1=O [AZT, 3′-azido-3′-deoxythymidine] | 1,020
* N#C[C@]1(CO)O[C@@H](n2cnc3c(N)nc(N)nc32)C[C@@H]1O [CAdA, 4′-C-cyano-2-amino-2′-deoxyadenosine] | 8,750
* Nc1ccn([C@@H]2CS[C@H](CO)O2)c(=O)n1 [3TC, lamivudine] | > 340

So, CC(C)(C)C(=O)OCOP(=O)(COCCn1cnc2c(N)ncnc21)OCOC(=O)C(C)(C)C [ADV, adefovir dipivoxil] ? Its S.I. with Anti-HIV-1 (CC50/IC50) was 21

Noted for C#C[C@]1(CO)O[C@@H](n2cnc3c(N)nc(F)nc32)C[C@@H]1O [EFdA, 4′-ethynyl-2-fluoro-2′-deoxyadenosine] : its S.I. with Anti-HIV-1 (CC50/IC50) reads 64,000

So, Nc1nc(NC2CC2)c2ncn([C@H]3C=C[C@@H](CO)C3)c2n1 [ABC, abacavir] ? Its S.I. with Anti-HIV-1 (CC50/IC50) was > 170

The value of S.I. with Anti-HIV-1 (CC50/IC50) measured for the molecule CC(C)OC(=O)OCOP(=O)(CO[C@H](C)Cn1cnc2c(N)ncnc21)OCOC(=O)OC(C)C [TDF, tenofovir disoproxil fumarate] turned out to be 70

// field: S.I. with Anti-HIV-1 (CC50/IC50); key: Nc1ccn([C@H]2CC[C@@H](CO)O2)c(=O)n1 [ddC, 2′,3′-dideoxycytidine] ; value = > 300

molecule N#C[C@]1(CO)O[C@@H](n2cnc3c(=O)[nH]c(N)nc32)C[C@@H]1O [CdG, 4′-C-cyano-2′-deoxyguanosine] , S.I. with Anti-HIV-1 (CC50/IC50) observed: 7,000

S.I. with Anti-HIV-1 (CC50/IC50) for C=C1[C@H](CO)[C@@H](O)C[C@@H]1n1cnc2c(=O)[nH]c(N)nc21 [ETV, entecavir] is 38

S.I. with Anti-HIV-1 (CC50/IC50) reading for C#C[C@@]1(CO)C=C[C@H](n2cc(C)c(=O)[nH]c2=O)O1 [Ed4T] : > 380
